These entries and their values trace back to patent US20230029385A1.

measured on: UniProtKB Q07889
Sequence (Q07889 with tags, fused parts or gaps): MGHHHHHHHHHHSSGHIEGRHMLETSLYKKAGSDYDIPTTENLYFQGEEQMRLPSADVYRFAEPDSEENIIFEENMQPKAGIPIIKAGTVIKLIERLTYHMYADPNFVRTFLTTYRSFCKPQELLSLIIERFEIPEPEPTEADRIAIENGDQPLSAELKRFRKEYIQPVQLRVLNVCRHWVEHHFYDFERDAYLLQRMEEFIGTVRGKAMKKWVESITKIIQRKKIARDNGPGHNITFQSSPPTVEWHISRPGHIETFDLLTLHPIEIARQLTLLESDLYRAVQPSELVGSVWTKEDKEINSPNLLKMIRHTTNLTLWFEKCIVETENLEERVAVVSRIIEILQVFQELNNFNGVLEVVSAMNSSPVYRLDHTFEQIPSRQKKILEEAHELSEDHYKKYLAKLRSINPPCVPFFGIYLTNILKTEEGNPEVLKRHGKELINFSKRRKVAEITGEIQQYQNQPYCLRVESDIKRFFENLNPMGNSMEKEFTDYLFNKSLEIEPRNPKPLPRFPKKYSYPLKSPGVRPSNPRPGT
// returns NOT MET unless IC50 is strictly below 200 nM, in which case MET

smiles structure: CC(=O)N[C@@H]1CCN(c2cc3c(N[C@H](C)c4cccc(C(F)F)c4F)nc(C)nc3c(C)n2)C1
measured on: UniProtKB Q07889
category: NOT MET
--
smiles structure: Cc1nc(N[C@H](C)c2cccc(C(F)F)c2F)c2cc(N3CCCC3)ncc2n1
measured on: UniProtKB Q07889
category: NOT MET
--
smiles structure: CC(=O)N[C@H]1CCN(c2cc3c(N[C@H](C)c4cccc(C(F)F)c4F)nc(C)nc3cn2)C1
measured on: UniProtKB Q07889
category: MET
--
smiles structure: CC(=O)N[C@@H]1CCN(c2cc3c(N[C@H](C)c4cccc(C(F)F)c4F)nc(C)nc3cn2)C1
measured on: UniProtKB Q07889
category: MET
--
smiles structure: Cc1nc(N[C@H](C)c2cccc(C(F)F)c2F)c2cc(F)nc(C)c2n1
measured on: UniProtKB Q07889
category: NOT MET
--
smiles structure: CCOc1cc2c(N[C@H](C)c3cccc(C(F)F)c3F)nc(C)nc2cn1
measured on: UniProtKB Q07889
category: NOT MET
--
smiles structure: Cc1nc(N[C@H](C)c2cccc(C(F)F)c2F)c2cc(F)ncc2n1
measured on: UniProtKB Q07889
category: NOT MET

----------
measured on: UniProt Q07889
Sequence (Q07889 564-1049): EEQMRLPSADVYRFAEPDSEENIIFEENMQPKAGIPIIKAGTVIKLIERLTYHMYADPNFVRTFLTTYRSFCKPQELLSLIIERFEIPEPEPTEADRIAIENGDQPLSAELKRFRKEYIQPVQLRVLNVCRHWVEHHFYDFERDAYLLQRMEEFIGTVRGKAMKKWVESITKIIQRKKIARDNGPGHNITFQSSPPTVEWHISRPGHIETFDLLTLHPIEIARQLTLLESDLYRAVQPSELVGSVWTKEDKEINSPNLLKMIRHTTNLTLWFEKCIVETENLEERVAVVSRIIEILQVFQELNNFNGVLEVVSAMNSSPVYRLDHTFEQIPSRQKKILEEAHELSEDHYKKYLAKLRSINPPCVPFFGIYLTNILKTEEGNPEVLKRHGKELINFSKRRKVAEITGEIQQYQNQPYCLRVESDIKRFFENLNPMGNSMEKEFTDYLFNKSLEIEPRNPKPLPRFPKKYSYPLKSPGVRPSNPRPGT
pIC50: −log10 of the molar value.

smiles structure: CC(=O)N[C@@H]1CCN(c2cc3c(N[C@H](C)c4cccc(C(F)F)c4F)nc(C)nc3c(C)n2)C1
measured on: UniProt Q07889
sign: =
pIC50: 7.08
//
smiles structure: Cc1nc(N[C@H](C)c2cccc(C(F)F)c2F)c2cc(N3CCCC3)ncc2n1
measured on: UniProt Q07889
sign: =
pIC50: 6.76
//
smiles structure: Cc1nc(N[C@H](C)c2cccc(C(F)F)c2F)c2cc(F)nc(C)c2n1
measured on: UniProt Q07889
sign: <
pIC50: 4.70
//
smiles structure: CC(=O)N[C@@H]1CCN(c2cc3c(N[C@H](C)c4cccc(C(F)F)c4F)nc(C)nc3cn2)C1
measured on: UniProt Q07889
sign: =
pIC50: 7.03
//
smiles structure: CCOc1cc2c(N[C@H](C)c3cccc(C(F)F)c3F)nc(C)nc2cn1
measured on: UniProt Q07889
sign: =
pIC50: 6.51
//
smiles structure: Cc1nc(N[C@H](C)c2cccc(C(F)F)c2F)c2cc(F)ncc2n1
measured on: UniProt Q07889
sign: <
pIC50: 4.70
//
smiles structure: CC(=O)N[C@H]1CCN(c2cc3c(N[C@H](C)c4cccc(C(F)F)c4F)nc(C)nc3cn2)C1
measured on: UniProt Q07889
sign: =
pIC50: 7.00
